- EXPERIMENTAL_TARGET: human CCR8 (human, UniProt P51685 1-355)
- Sequence (P51685 whole entry): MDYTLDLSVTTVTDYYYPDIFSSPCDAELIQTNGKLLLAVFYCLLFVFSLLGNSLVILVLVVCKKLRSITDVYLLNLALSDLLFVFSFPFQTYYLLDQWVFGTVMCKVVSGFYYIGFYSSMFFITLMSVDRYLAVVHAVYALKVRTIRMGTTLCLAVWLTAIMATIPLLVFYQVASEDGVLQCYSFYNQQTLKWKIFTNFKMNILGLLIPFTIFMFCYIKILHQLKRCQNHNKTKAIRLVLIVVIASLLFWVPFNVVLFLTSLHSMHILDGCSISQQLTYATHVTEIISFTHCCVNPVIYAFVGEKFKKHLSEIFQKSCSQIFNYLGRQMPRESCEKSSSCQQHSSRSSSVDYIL
- PROTOCOL_DESCRIPTION: cell-based or functional assay
READOUT_NAME: IC50(nM), blocking activity
Give bare numbers, in nM.

The cases that follow already have their IC50(nM), blocking activity on record.
BINDER	READING_UNIT	IC50(nM), blocking activity
hu305-4F-2m-AF (antibody, V domains shown) VH: QVQLQESGPGLVKPSQTLSLTCTVSGFSLAVYGVHWVRQPPGKGLEWLGVIWRGGTTDYNPSLKSRLTFSKDSSKSQVSLKLSSVTAADTAVYYCAKNRVTTVVAPNFYAMDYWGQGTLVTVSS VL: DIVMTQSPDSLAVSLGERVTINCKSSQSLLYSGNQKNYLAWYQQKPGQSPKLLIYWASTRKSGVPDRFSGSGSGTDFTLTISSLQAEDVAAYYCQQYYTYPLTFGQGTRLEIK	nM	13.1
Ch305-AF (antibody, V domains shown, human IgG1/kappa; also called afucosylated Ch305) VH: QVQMKQSGPSLVQPSQSLSITCTVSGFSLTSYGVHWVRQSPGKGLEWLGVIWRGGTTDYNAAFMSRLSFTKDSSKSQVFFKLNSLQADDTAIYYCAKNRVTTVVAPNFYAMDYWGQGTSVTVSS VL: DIVMTQSPSSLAVSVGEKVTMSCKSSQSLLYSGNQKNYLAWYQQKPGQSPKLLIYWASTRKSGVPDRLTGSGSGTDFTLTISSVKAEDLAAYYCQQYYTYPLTFGAGTRLEIK	nM	1.84
hu305-4F-2l-AF (antibody, V domains shown, also called hu305-4F-21-AF; hu305-4F-21) VH: QVQLQESGPGLVKPSQTLSLTCTVSGFSLAVYGVHWVRQPPGKGLEWLGVIWRGGTTDYNPSLKSRLTFSKDSSKSQVSLKLSSVTAADTAVYYCAKNRVTTVVAPNFYAMDYWGQGTLVTVSS VL: DIVMTQSPDSLAVSLGERVTMNCKSSQSLLYSGNQKNYLAWYQQKPGQSPKLLIYWASTRKSGVPDRFSGSGSGTDFTLTISSLQAEDVAAYYCQQYYTYPLTFGQGTRLEIK	nM	6.19

Let us examine a further case.
## Task IC50(nM), blocking activity for hu305-5P-3a-AF (antibody, V domains shown) VH: QVQLKQSGPGLVKPSETLSLTCTVSGFSLTSYGVHWVRQPPGKGLEWLGVIWRGGTTDYNPSLKSRVTFSKDSSKNQVSLKLSSVTAADTAVYYCAKNRVTTVVAPNFYAMDYWGQGTLVTVSS VL: DIVMTQSPDSLAVSLGERATINCKSSQSLLYSGNQKNYLAWYQQKPGQPPKLLIYWASTRKSGVPDRFSGSGSGTDFTLTISSLKAEDVAVYYCQQYYTYPLTFGQGTRLEIK ?
## Result 10.5
